Biological target: TAS2R20 (Homo sapiens)
Construct: TAS2R cDNA cloned 3′ of the first 45 amino acids of the rat somatostatin receptor 3
Sequence (P59543 whole entry): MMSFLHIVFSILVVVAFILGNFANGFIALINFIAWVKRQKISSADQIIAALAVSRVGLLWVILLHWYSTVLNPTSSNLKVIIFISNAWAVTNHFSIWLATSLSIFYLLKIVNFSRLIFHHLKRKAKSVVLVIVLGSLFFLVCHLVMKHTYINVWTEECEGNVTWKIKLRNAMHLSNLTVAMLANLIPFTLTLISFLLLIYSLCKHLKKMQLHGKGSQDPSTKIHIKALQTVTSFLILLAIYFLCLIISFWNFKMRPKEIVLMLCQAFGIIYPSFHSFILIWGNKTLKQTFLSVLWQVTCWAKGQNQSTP
Assay: FLIPR calcium imaging in transfected HEK293 PEAKrapid Gα[…]i/o44 cells, dose-response with mock control
reported-endpoint: EC50 (µM)
Answer in µM, number only, no unit symbol.

According to the records, this molecule COc1cc(C=O)ccc1O [vanillin, 4-hydroxy-3-methoxybenzaldehyde] displays EC50 of 530

----------
Target: TAS2R14 (Homo sapiens, UniProt Q9NYV8)
Construct: TAS2R cDNA cloned 3′ of the first 45 amino acids of the rat somatostatin receptor 3
Sequence (Q9NYV8 whole entry): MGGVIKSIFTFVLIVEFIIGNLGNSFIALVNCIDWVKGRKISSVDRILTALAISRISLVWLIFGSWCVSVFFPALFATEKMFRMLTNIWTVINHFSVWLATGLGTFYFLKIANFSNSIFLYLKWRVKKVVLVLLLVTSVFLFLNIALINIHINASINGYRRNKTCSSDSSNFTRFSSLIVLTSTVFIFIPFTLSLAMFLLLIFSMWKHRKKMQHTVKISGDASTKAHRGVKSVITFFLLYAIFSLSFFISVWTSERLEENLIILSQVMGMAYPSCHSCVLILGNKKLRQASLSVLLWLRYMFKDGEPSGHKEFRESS
Experiment: FLIPR calcium imaging in transfected HEK293 PEAKrapid Gα[…]i/o44 cells, dose-response with mock control
reported-endpoint: pEC50
Please treat pEC50 as minus the base-10 logarithm of the molar concentration.

According to the records, this molecule COc1cc(C=O)ccc1O [vanillin, 4-hydroxy-3-methoxybenzaldehyde] displays pEC50 of 3.24
